target: T1, HLA-A*0201 (human); assay: UV-ligand exchange, streptavidin/anti-b2m sandwich ELISA
T1 construct: MHC monomer first loaded with a UV-sensitive peptide that is cleaved and exchanged for the test peptide; captured on streptavidin; also called peptide-receptive MHC molecules
Attribute: Average exchange yield in %
The response must be a number in % with no trailing unit.

INSERT INTO results (binder, recordedmeasurement) VALUES
  ('KILEDVVGV (synthetic peptide from TPX2) [TPX2-001]', 56);

What value of Average exchange yield in % has been recorded for this entry: TLISRLPAV (synthetic peptide from RCC1) [RCC1-001]
77

Now try TVAEVIQSV (synthetic peptide from KIF26B) [KIF26B-001] .
68

Would you mind doing KLLEYIEEI (synthetic peptide from HMMR) [HMMR-001] as well?
49

Would you mind doing SLIEDLILL (synthetic peptide from SMYD3) [SMYD3-001] as well?
50

Another binder to look at: YVYQNNIYL (synthetic peptide from FAP) [FAP-003]
31

Moving on to the next binder: RLLGPSAAADILQL (synthetic peptide from HUWE1) [HUWE1-001]
45

And then ILFPDIIARA (synthetic peptide from MAGEF1) [MAGEF1-001] , what is it?
83

Then ALYDSVILL (synthetic peptide from DIO2) [DIO2-001] ?
50

Subsequent entry: TLSSIKVEV (synthetic peptide from MXRA5) [MXRA5-001]
57

Try the binder VLFPNLKTV (synthetic peptide from BNC1) [BNC1-001]
43

Entry FQYDHEAFL (synthetic peptide from RCN1, RCN3) [RCN1-001] please
75

# repeat for KLDETNNTL (synthetic peptide from DST) [DST-002]
59

Same question for YLPHAPPFA (synthetic peptide from JUNB) [JUNB-001] please.
51

// query: VVDKTLLLV (synthetic peptide from C11orf24) [C11orf24-001]
47

Another binder to check: VLLPVEVATHYL (synthetic peptide from SLC34A2) [SLC34A2-001]
51
